Data provenance: PubChem BioAssay AID720513

- protocol-summary: PGC1a acetylation increase, cellular AlphaLISA – cell-based, cherry-picked samples, set 6, dose response (AID 720513);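 further: cells made to overexpress flag tagged PGC1a plus GCN5 acetyltransferase by viral infection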
- experimental-parameters: U2OS PGC1a acetylation AlphaLISA, overnight, 0 = neutral, -100 = inhibitor control; series mostly up to 19.5 µM
About 480 (23%) of roughly 2,100 compounds were called active. Another 5% or so got no clear call; they are omitted. Only a sample is shown. Potency and affinity values are given separately.
readout-type: outcome

smiles_string=O=C1C=CCCN1C(=O)/C=C/c1cccc(C(F)(F)F)c1 endpoint_value=inactive
smiles_string=CCOc1ccc(N(CC(=O)Nc2ccccc2OC)S(=O)(=O)c2ccccc2)cc1 endpoint_value=inactive
smiles_string=CCOCCc1nn2c(=O)cc(CSCC(=O)Nc3cccc(C)c3C)nc2s1 endpoint_value=inactive
smiles_string=COc1ccc(NC(=O)/C(Cl)=C(/Cl)S(=O)(=O)Cc2ccccc2)cn1 endpoint_value=inactive
smiles_string=O=C(NCc1ccc2c(c1)OCO2)c1nc(S(=O)(=O)Cc2ccccc2)ncc1Cl endpoint_value=inactive
smiles_string=COc1c(O)cc(O)c2c(=O)cc(-c3ccccc3)oc12 endpoint_value=inactive
smiles_string=CO[C@@H]1CN(C)C(=O)c2cc(NC(C)=O)ccc2OC[C@H](C)N(Cc2cc(F)ccc2F)C[C@H]1C endpoint_value=inactive
smiles_string=COc1ccc(S(=O)(=O)Nc2ccc3c(c2)C(=O)N([C@H](C)CO)C[C@@H](C)[C@H](CN(C)C(=O)Nc2ccc(C(F)(F)F)cc2)OCCCC[C@@H](C)O3)cc1 endpoint_value=inactive
smiles_string=Cc1ccc(Cn2ncc(Cl)c(Cl)c2=O)cc1 endpoint_value=inactive
